- measurement-target: T1, HLA DQA1*0102:DQB1*0602, P01920
- T1 chain 1: not shown
- T1 chain 2: not shown
- assay-notes: REVEAL class II binding assay (cell-free)
value-kind: Stability index
Please state the value as a number alone, without comment.

Known Stability index results, listed for orientation:
LTVAAWSVKTSPLNM (modifications not checked) [Peptide #13 (Reverse of #10)]	0.2
VGKMIGGIGRFYIQM (modifications not checked) [Peptide #5 (Common CP sequence)]	33
LILYDKEEMRRIWRQ (modifications not checked) [Peptide #4 (X181 NP fragment)]	0.6

We now examine a further binder.
Which Stability index value is on record for SGAAGAAVKGVGTMV (modifications not checked) [Peptide #6 (Common CP sequence)] ?
0.1
